Cited source: the supplement of paper PMC11208160

Assay: recombinant UMI read abundance after kanamycin selection (control-corrected) (log10(CPM+1)); higher = more efficient recombination; extreme values may be limits of the assay; sequences stand for … in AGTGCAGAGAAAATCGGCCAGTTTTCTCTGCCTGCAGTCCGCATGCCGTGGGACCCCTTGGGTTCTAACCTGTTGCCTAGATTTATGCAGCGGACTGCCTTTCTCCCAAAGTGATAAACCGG…AGGTTGGTTTCACT; site = the 11-nt donor;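 also: IS621 bridge recombinase in Escherichia coli cells against a fixed T5 target plasmid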
quantity.measured: recombinant UMI read abundance (log10)

> print(dat)
                             sequence.record                       quantity.measured  numeric.readout
 1  TTCATTGCATGGACCGGTTTTCCCGGTAATCCGTATTTGAA (site TTCATTGCTTT)  recombinant UMI read abundance (log10)                0
 2  ATCCTAGCATGGACCGGTTTTCCCGGTAATCCGTATTTGTA (site ATCCTAGCTTA)  recombinant UMI read abundance (log10)             1.58
 3  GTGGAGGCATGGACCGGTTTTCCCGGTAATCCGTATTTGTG (site GTCGAGGCTCA)  recombinant UMI read abundance (log10)          0.00904
 4  CCAGGTGCATGGACCGGTTTTCCCGGTAATCCGTATTTGAC (site CCAGGTGCTCT)  recombinant UMI read abundance (log10)          0.00976
 5  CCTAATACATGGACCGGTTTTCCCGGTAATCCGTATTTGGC (site CCTCATACTGC)  recombinant UMI read abundance (log10)                0
 6  GGCCATCCATGGACCGGTTTTCCCGGTAATCCGTATTTGGC (site GGCCATCCTGC)  recombinant UMI read abundance (log10)                0
 7  GGCACAGCATGGACCGGTTTTCCCGGTAATCCGTATTTGAA (site GGCACAGCTTT)  recombinant UMI read abundance (log10)             1.87
 8  ATCTCAGCATGGACCGGTTTTCCCGGTAATCCGTATTTGGG (site ACCTCAGCTCC)  recombinant UMI read abundance (log10)             0.01
 9  TCAGAGACATGGACCGGTTTTCCCGGTAATCCGTATTTGAG (site TCAGAGACTCG)  recombinant UMI read abundance (log10)            0.938
10  GGCCGCCCATGGACCGGTTTTCCCGGTAATCCGTATTTGTT (site GGCCCCCCTAA)  recombinant UMI read abundance (log10)          0.00441
11  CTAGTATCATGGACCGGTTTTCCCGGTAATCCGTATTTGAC (site CTAATATCTGA)  recombinant UMI read abundance (log10)                0
12  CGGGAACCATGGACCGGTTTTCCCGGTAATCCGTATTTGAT (site CGGGAGCCTAT)  recombinant UMI read abundance (log10)                0
13  ACAGGTGCATGGACCGGTTTTCCCGGTAATCCGTATTTGAT (site GCAGGTGCTAT)  recombinant UMI read abundance (log10)            0.572
14  TAGCCCTCATGGACCGGTTTTCCCGGTAATCCGTATTTGGT (site TAGCCCTCTAC)  recombinant UMI read abundance (log10)             1.12
15  ACCTACCCATGGACCGGTTTTCCCGGTAATCCGTATTTGAC (site ACCTACCCTGT)  recombinant UMI read abundance (log10)            0.183
16  CACTGCTCATGGACCGGTTTTCCCGGTAATCCGTATTTGCC (site CACTCCTCTGG)  recombinant UMI read abundance (log10)                0
17  CAGTTCCCATGGACCGGTTTTCCCGGTAATCCGTATTTGCT (site CACTTCCCTAG)  recombinant UMI read abundance (log10)            0.644
18  TAGCGCGCATGGACCGGTTTTCCCGGTAATCCGTATTTGTC (site TAGCGCGCTGA)  recombinant UMI read abundance (log10)             2.77
19  GGTTAGACATGGACCGGTTTTCCCGGTAATCCGTATTTGAG (site AGTTAGACTCT)  recombinant UMI read abundance (log10)            0.498
20  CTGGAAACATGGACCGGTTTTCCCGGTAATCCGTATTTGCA (site CTGGTAACTTG)  recombinant UMI read abundance (log10)          0.00624
